tested on: Plasmodium falciparum; test: Calibr Malaria Delayed Death Assay SOP; format: functional, organism-based; set-up: scale not given: in the data most compounds retested in dose-response had high values; conditions: concentration 4.99e-06 (unit not given; other assays of the set use mol/L)
The whole screen tested about 38,000 compounds, of which about 1,200 (3.2%) showed an effect of 50% or more. The median lay at about -58%. For the sample, strong results were picked, then their nearest neighbours and some compounds at random.
If the reported Percent Effect equals or exceeds -60%, assign Met. If not, assign Not met.

Is Percent Effect for Cc1cc2n(n1)CC(CNC1CCN(CCc3ccccc3)CC1)CN2 (stereo unspecified) at or above -60%?
Met

Is Percent Effect for Cc1cc2n(n1)CC(CNC1CCN(C(=O)c3ccco3)CC1)CN2 (stereo unspecified) at or above -60%?
Not met

Is Percent Effect for OCc1ccccc1CNCC1CNc2ccnn2C1 (stereo unspecified) at or above -60%?
Met

====

tested on: Plasmodium falciparum; assay: Calibr Malaria Delayed Death Assay SOP; assay type: functional, organism-based; set-up: scale not given: in the data most compounds retested in dose-response had high values; conditions: concentration 4.99e-06 (unit not given; other assays of the set use mol/L)
Out of some 38,000 compounds screened, about 1,200 (3.2%) showed an effect of 50% or more. The median lay at about -58%. The list comes from a sample in which strong results are over-represented; it also holds close analogues and randomly drawn compounds.
The following compounds are shown together with reported Percent Effect values.
Numbers only; they are read as %.

compound | result-number
CC(C)C(CNCc1cccc2c1OCO2)N1CCOCC1 (configuration not stated) | 75.82

Complete the entry with Percent Effect for Cc1cnc(C(=O)NCC(c2ccc(C)o2)N2CCOCC2)cn1 (configuration not stated)
-124.5

====

tested on: Plasmodium falciparum; assay: Calibr Malaria Delayed Death Assay SOP; assay type: functional, organism-based; set-up: scale not given: in the data most compounds retested in dose-response had high values; details: concentration 4.99e-06 (unit not given; other assays of the set use mol/L)
Screen size: about 38,000 compounds; about 1,200 (3.2%) showed an effect of 50% or more. The median lay at about -58%. The sample holds strong results, similar compounds and a random draw of the others, so the mix is not that of the screen.
The following molecules are shown together with reported Percent Effect values.
Numbers only; they are read as %.

molecule | assay-system | Percent Effect (%)
O=C(Nc1cccnc1)C1Cc2nc(-c3ccsc3)sc2N1CC1CC1.O=C(O)C(F)(F)F (stereo not drawn) | Plasmodium falciparum | -160.3
Cn1nc(-c2ccccc2)c(Cl)c1C(=O)O | Plasmodium falciparum | 13.43
CCC(C)C(=O)N(CC(=O)OC)c1cccc(C)n1 (stereo not drawn) | Plasmodium falciparum | -66.48

Turning now to a further molecule:
Complete the entry with Percent Effect for `Cn1c(CN2CCCCCC2)cc(=O)c(O)c1CN1CCCC1`
59.19

====

test system: Plasmodium falciparum; test: Calibr Malaria Delayed Death Assay SOP; assay type: functional, organism-based; design: scale not given: in the data most compounds retested in dose-response had high values; conditions: concentration 4.99e-06 (unit not given; other assays of the set use mol/L)
Among all 38,000 compounds or so, about 1,200 (3.2%) showed an effect of 50% or more. The median lay at about -58%. The sample as a whole holds a higher share of strong results than the screen did.
readout-kind: Percent Effect
State the result as a value with its unit after it.

compound | readout-kind | result
Cc1ccccc1CN1CCC2(CCCN2C(=O)C(C)C)CC1 | Percent Effect | -62.94%

Turning now to a further compound:
Complete the entry with Percent Effect for COCC(O)CNc1ccc(C#N)cc1C(F)(F)F (stereo unspecified)
-11.9%

====

test system: Plasmodium falciparum; assay: Calibr Malaria Delayed Death Assay SOP; assay type: functional, organism-based; parameters: scale not given: in the data most compounds retested in dose-response had high values; conditions: concentration 4.99e-06 (unit not given; other assays of the set use mol/L)
Screen size: about 38,000 compounds; about 1,200 (3.2%) showed an effect of 50% or more. The median lay at about -58%. The entries come from a sample that favours strong results as a whole.
Please note: Percent Effect exactly at -30% is N. Only values below -30% get Y.

Here's what some known entries look like.
molecule | category-label
N#Cc1cc(F)c(NCc2ccc(F)cc2)c(F)c1 | Y
CC(=O)NCCCNCc1ccc(Cl)c2cccnc12 | Y
Cc1nc2n(n1)CC(NCc1ccc(Cl)c3cccnc13)CC2 (stereo not drawn) | N

Criterion: Percent Effect strictly below -30%. Is it met by `CC(=O)N(C)Cc1cccc(NC(=O)c2cnn(C)c2C)c1` ?
N

Criterion: Percent Effect strictly below -30%. Is it met by COCC1c2c(cnn2C)CCN1Cc1ccco1.O=C(O)C(F)(F)F.O=C(O)C(F)(F)F (stereo not drawn) ?
N

Criterion: Percent Effect strictly below -30%. Is it met by `CN1CCC(N(Cc2ccncc2)Cc2nc3c(s2)CCCC3)CC1` ?
N

Criterion: Percent Effect strictly below -30%. Is it met by O=C(O)C(F)(F)F.O=C(O)C(F)(F)F.c1coc(CN2C[C@@H]3OCCN(CC4CCCO4)[C@@H]3C2)c1 (stereo partly drawn) ?
Y

Criterion: Percent Effect strictly below -30%. Is it met by CC(C)(C)[S+]([O-])CCNC(=O)c1ccc(Cl)c2cccnc12 (stereo not drawn) ?
Y

Criterion: Percent Effect strictly below -30%. Is it met by O=C(NC1CC2(CCN(CCO)CC2)c2ccccc21)c1ccncc1.O=C(O)C(F)(F)F.O=C(O)C(F)(F)F (stereo not drawn) ?
Y

Criterion: Percent Effect strictly below -30%. Is it met by `O=C(c1cnn[nH]1)N(CCCO)Cc1cccnc1` ?
Y

Criterion: Percent Effect strictly below -30%. Is it met by `CN1CCC2(CC1)CN(C(=O)c1ccncc1)Cc1ccccc12` ?
Y

Criterion: Percent Effect strictly below -30%. Is it met by `CC(=O)CSc1nnc2n1N=CN(c1cccc(Cl)c1)C2` ?
Y

====

The following molecules are shown together with reported Percent Effect values.
system: Plasmodium falciparum; test: Calibr Malaria Delayed Death Assay SOP; type: functional, organism-based; design: scale not given: in the data most compounds retested in dose-response had high values; conditions: concentration 4.99e-06 (unit not given; other assays of the set use mol/L)
The campaign covered roughly 38,000 compounds. About 1,200 (3.2%) showed an effect of 50% or more. The median lay at about -58%. The sample holds strong results, similar compounds and a random draw of the others, so the mix is not that of the screen.
Numbers only; they are read as %.

molecule | assay-system | result-number
CC(C)c1nn(C)c(N(C)C)c1CNCC(O)c1ccccc1F (stereo not drawn) | Plasmodium falciparum | -90.64
N#Cc1cccc(S(=O)(=O)N2CC(CC(=O)O)c3ccccc32)c1 (stereo not drawn) | Plasmodium falciparum | -122.6
CSCc1cc(F)ccc1CNCc1cccc(O)c1 | Plasmodium falciparum | 72.86
CCCc1nnc(N2CCN(c3ccccc3F)CC2)o1 | Plasmodium falciparum | -72.7
CC(C)c1nn(C)c(N(C)C)c1CNCC(O)c1ccccc1 (stereo not drawn) | Plasmodium falciparum | -60.19

Complete the entry with Percent Effect for CC(C)C(C)NC(=O)CNc1cc2c(cc1Cl)NC(=O)CO2 (stereo not drawn)
-65.88

Complete the entry with Percent Effect for `CSCc1cc(F)ccc1CNCc1cccnc1`
1.167

Complete the entry with Percent Effect for CCc1nnc2n1CCN(C(=O)C1CCC(n3cccc3)CC1)C2 (stereo not drawn)
-12.54

Complete the entry with Percent Effect for `Cc1ccccc1N1CCN(C(=O)CC(C)C)CC1`
-106.5

Complete the entry with Percent Effect for `COc1ccc(C[C@H]2CN(c3cc(OC)ncn3)CC[C@@H]2OC)cc1.O=C(O)C(F)(F)F`
-3.62

Complete the entry with Percent Effect for CC(COc1ccccc1)NCc1cn2ccccc2n1 (stereo not drawn)
-27.04

Complete the entry with Percent Effect for `COc1ccc(C[C@H]2CN(Cc3ccoc3)CC[C@H]2OC)cc1.O=C(O)C(F)(F)F`
74.09

Complete the entry with Percent Effect for `O=C(NC[C@H]1OC[C@@H]2CN(Cc3ccco3)CC[C@@H]21)c1cscn1.O=C(O)C(F)(F)F`
-201.4

Complete the entry with Percent Effect for CCCn1c(N2CCCC(C)C2)nc2c(C)nn(C)c2c1=O (stereo not drawn)
-32.41

Complete the entry with Percent Effect for `CN1CCN(S(=O)(=O)c2cccc(C#N)c2)c2ccc(F)cc21`
-39.03

Complete the entry with Percent Effect for O=C1CC(c2ccc(F)cc2)c2cnn(C3CCCC3)c2N1 (stereo not drawn)
-115.7

====

tested on: Plasmodium falciparum; experiment: Calibr Malaria Delayed Death Assay SOP; assay type: functional, organism-based; design: scale not given: in the data most compounds retested in dose-response had high values; conditions: concentration 4.99e-06 (unit not given; other assays of the set use mol/L)
Among all 38,000 compounds or so, about 1,200 (3.2%) showed an effect of 50% or more. The median lay at about -58%. For the sample, strong results were picked, then their nearest neighbours and some compounds at random.
The following compounds are shown together with reported Percent Effect values.

Worked cases, answers included:
compound | result
Cc1cnn(CC2CN(Cc3nc(-c4ccco4)no3)CCO2)c1 (stereo not drawn) | -38.17%
COc1ccc(CN2C[C@@H]3OCCN(C)[C@@H]3C2)cc1.O=C(O)C(F)(F)F | -49.2%
CC(C)n1ncc2c1NC(=O)CC21C(=O)Nc2cc(Cl)cc(Cl)c21 (stereo not drawn) | -81.88%
COc1ccc(CN2C[C@@H]3OCCN(CCN(C)C)[C@@H]3C2)cc1.O=C(O)C(F)(F)F.O=C(O)C(F)(F)F.O=C(O)C(F)(F)F | 65.18%

Complete the entry with Percent Effect for `COCCN1CC[C@@H]2CN(Cc3cccnc3OC)C[C@@H]2C1.O=C(O)C(F)(F)F.O=C(O)C(F)(F)F`
-74.35%

Complete the entry with Percent Effect for CC(C)n1ncc2c1NC(=O)CC21C(=O)Nc2c(Cl)cc(Br)cc21 (stereo not drawn)
-58.13%

Complete the entry with Percent Effect for `O=C(O)C(F)(F)F.O=C(O)C(F)(F)F.O=C(O)C(F)(F)F.O=C(O)C(F)(F)F.c1cc(CN2C[C@@H]3OCCN(CCN4CCCC4)[C@@H]3C2)ccn1`
-114.9%

Complete the entry with Percent Effect for O=C(NCC(O)CO)Nc1cc(Br)ccc1F (stereo not drawn)
-140%

Complete the entry with Percent Effect for O=C(N1CCCC1)N1CCC2(CCCN(CCOc3ccccc3)C2)C1.O=C(O)C(F)(F)F (stereo not drawn)
-4.272%
